Reported MIC values for a set of compounds
System: Pseudomonas fluorescens
TEST_METHOD_NOTES: Antimicrobial activity against Pseudomonas fluorescens
Type: functional
Dear colleague, please return just the value in µg/mL, with no unit written.

- SMILES_REPRESENTATION: "C=C1CC[C@@H]2[C@](C)(CO)[C@H](O)CC[C@@]2(C)[C@@H]1C/C=C1/C(=O)OC[C@H]1OC(C)=O"
  PROPERTY: "MIC"
  RECORDED_MEASUREMENT: 4

Can you share its MIC? I mean this compound: CN[C@@H]1[C@@H](O)[C@@H](O[C@@H]2[C@@H](O)[C@H](O[C@H]3O[C@H](CN)CC[C@H]3N)[C@@H](N)C[C@H]2N)OC[C@]1(C)O.O=S(=O)(O)O 0.5

Can you share its MIC? I mean this compound: C=C1CC[C@@H]2[C@](C)(CO)[C@H](O)CC[C@@]2(C)[C@@H]1C/C=C1/C(=O)OC[C@H]1OC(=O)CCC 16

Can you share its MIC? I mean this compound: C=C1CC[C@@H]2[C@](C)(CO)[C@H](O)CC[C@@]2(C)[C@@H]1C/C=C1/C(=O)OC[C@H]1OC(=O)CCCCCCCCC 64

Can you share its MIC? I mean this compound: C=C1CC[C@@H]2[C@](C)(CO)[C@H](O)CC[C@@]2(C)[C@@H]1C/C=C1/C(=O)OC[C@H]1OC(=O)CC 32
